- TARGET DESC: T1, human IL4Rα/Fc (R and D Systems 604-4R) (human, UniProt P24394 26-231, limits assumed, biotin labelled in the assay of Example 5)
- T1 construct: bought protein; also called IL-4Rα/Fc (R&D systems Cat. No. 604-4R-050); not shown: Fc part of the bought fusion
- T1 sequence (looked up): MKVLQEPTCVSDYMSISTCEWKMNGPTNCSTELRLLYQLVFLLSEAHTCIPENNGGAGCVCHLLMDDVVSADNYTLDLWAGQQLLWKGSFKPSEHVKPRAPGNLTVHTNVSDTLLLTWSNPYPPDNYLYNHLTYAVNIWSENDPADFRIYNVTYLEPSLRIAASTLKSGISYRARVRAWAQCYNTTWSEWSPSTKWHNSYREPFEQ
- EXPERIMENT DESCRIPTION: HTRF receptor-ligand assay, purified scFv against biotinylated human IL4
# pKi listing for each entry below
Recall that pKi is obtained by taking minus log10 of the concentration measured in molar.

Field: example entries. Status: answers known.
Antibody 12 scFv (scFv, V domains shown, tested as purified scFv) VH: QVQLVQSGAEVKKPGASVKVSCKASGYAFTSYYMHWARQAPGQGLEWMGIINPSGGSTSYAQKFQGRVTMTRDTSTSTVYMELSSLRSEDTAVYYCARGKWWFYDWGKGTLVTVSS VL: QSVLTQPPSVSAAPGQKVTISCSGGSSNIGNSYVSWYQQLPGTAPKLLIYDNNKRPSGIPDRFSGSKSGTSATLAITGLQTGDEADYYCGTWDTSTTMYPLFGTGTKLTVL :: 9.52
Antibody 23 scFv (scFv, V domains shown, tested as purified scFv) VH: QVQLVQSGAEVRKPGASVKVSCKASGYAFTSYYMHWARQAPGQGLEWMGIINPSGGSTSYAQKFQGRVTMTRDTSTSTVYMELSSLRSEDTAVYYCARGKYWMYDWGKGTLVTVSS VL: QSVLTQPPSVSAAPGQKVTISCSGGSSNIGNNYVSWYQQLPGTAPKLLIYDNNKRPPGIPDRFSGSKSGTSATLAITGLQTGDEADYYCGTWDTSTVWEWPFGTGTKLTVL :: 9.70

Q: Write down pKi measured for item Antibody 39 scFv (scFv, V domains shown, tested as purified scFv) VH: QVQLVQSGAEVKKPGASVKVSCKASGYAFTSYYMHWARQAPGQGLEWMGIINPRGGSTSYAQKFQGRVTMTRDTSTSTVYMELSSLRSEDTAVYYCARGKYWMYDWGKGTLVTVSS VL: QSVLTQPPSVSAAPGQKVTISCSGGSSNIGNSYVSWYQQLPGTAPKLLIYDNNKRPSGIPDRFSGSKSGTSATLAITGLQTGDEADYYCGTWDTSTAWEWPFGTGTKLTVL
Ans: 10.57
